These measurements were taken from patent US12186401B2.

We begin with a simple list: items and their reported DCmax(%) BRAF^V600E.
Target: BRAF^V600E (Homo sapiens, UniProt P15056, V600E)
Construct: A375 or SK-Mel-28 cells were obtained from ATCC; host or cells: A375 or SK-Mel-28
Sequence (P15056 whole entry V600E): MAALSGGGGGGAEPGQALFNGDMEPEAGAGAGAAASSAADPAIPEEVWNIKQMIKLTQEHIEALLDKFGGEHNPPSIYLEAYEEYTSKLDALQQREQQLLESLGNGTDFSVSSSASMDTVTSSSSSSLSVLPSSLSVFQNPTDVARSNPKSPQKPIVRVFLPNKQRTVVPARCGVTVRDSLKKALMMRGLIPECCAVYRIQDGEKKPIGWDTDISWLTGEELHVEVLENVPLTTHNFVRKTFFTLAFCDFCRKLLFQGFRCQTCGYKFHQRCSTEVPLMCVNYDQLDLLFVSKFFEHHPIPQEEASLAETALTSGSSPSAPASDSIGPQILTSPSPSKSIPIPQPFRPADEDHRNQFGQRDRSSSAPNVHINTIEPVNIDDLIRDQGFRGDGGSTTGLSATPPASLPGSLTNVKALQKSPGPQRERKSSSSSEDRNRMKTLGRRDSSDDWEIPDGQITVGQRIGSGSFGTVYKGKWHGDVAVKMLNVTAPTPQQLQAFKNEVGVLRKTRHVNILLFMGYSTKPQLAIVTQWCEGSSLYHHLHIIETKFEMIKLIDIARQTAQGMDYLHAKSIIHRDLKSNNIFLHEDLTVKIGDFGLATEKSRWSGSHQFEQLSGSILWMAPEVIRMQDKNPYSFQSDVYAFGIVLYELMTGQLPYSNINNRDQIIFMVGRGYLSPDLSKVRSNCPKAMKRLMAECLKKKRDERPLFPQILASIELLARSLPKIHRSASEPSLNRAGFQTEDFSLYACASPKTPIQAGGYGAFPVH
Assay: Cellular degradation assay, Western blot of BRAF^V600E
Type: cell-based
Conditions: Table 1; cells treated 24 hours, Western blot

compound: CCCS(=O)(=O)Nc1ccc(F)c(-n2cc(-c3cncnc3)c3nc(N(C)C4CCN(C(=O)CCOCCOCCOCCNc5cccc6c5C(=O)N(C5CCC(=O)NC5=O)C6=O)CC4)ccc32)c1F (centres unmarked) [Entry 2]
unit-abbrev: %
DCmax(%) BRAF^V600E: 0
--
compound: CCCS(=O)(=O)Nc1ccc(F)c(-n2cc(-c3cncnc3)c3nc(N(C)C4CCN(C(=O)CCOCCOCCOCCOCCOCCOCCNc5cccc6c5C(=O)N(C5CCC(=O)NC5=O)C6=O)CC4)ccc32)c1F (centres unmarked)
unit-abbrev: %
DCmax(%) BRAF^V600E: 60
--
compound: CCCS(=O)(=O)Nc1ccc(F)c(-n2cc(-c3cncnc3)c3nc(N(C)C4CCN(C(=O)CCOCCOCCOCCOCCOCCOCCOCCOCCNc5cccc6c5C(=O)N(C5CCC(=O)NC5=O)C6=O)CC4)ccc32)c1F (centres unmarked)
unit-abbrev: %
DCmax(%) BRAF^V600E: 40
--
compound: CCCS(=O)(=O)Nc1ccc(F)c(-n2cc(-c3cncnc3)c3nc(N(C)C4CCN(C(=O)CCOCCOCCOCCNc5cccc6c5C(=O)N(C5CCC(=O)NC5=O)C6=O)CC4)ccc32)c1F (centres unmarked) [Entry 16]
unit-abbrev: %
DCmax(%) BRAF^V600E: 60
--
compound: CCCS(=O)(=O)Nc1ccc(F)c(-n2cc(-c3cncnc3)c3nc(N(C)C4CCN(CC)CC4)ccc32)c1F [Entry 15, reference compound]
unit-abbrev: %
DCmax(%) BRAF^V600E: 0
--
compound: CCCS(=O)(=O)Nc1ccc(F)c(-n2cc(-c3cncnc3)c3nc(N(C)C4CCN(C(=O)CCOCCOCCOCCOCCNc5cccc6c5C(=O)N(C5CCC(=O)NC5=O)C6=O)CC4)ccc32)c1F (centres unmarked)
unit-abbrev: %
DCmax(%) BRAF^V600E: 82
--
compound: CCCS(=O)(=O)Nc1ccc(F)c(-n2cc(-c3cncnc3)c3nc(N(C)C4CCN(C(=O)CCOCCOCCOCCOCCOCCNc5cccc6c5C(=O)N(C5CCC(=O)NC5=O)C6=O)CC4)ccc32)c1F (centres unmarked)
unit-abbrev: %
DCmax(%) BRAF^V600E: 73
--
compound: CCCS(=O)(=O)Nc1ccc(F)c(-n2cc(-c3cncnc3)c3nc(N(C)C4CCN(C(=O)CCC(=O)NCCCOCCOCCOCCCNc5cccc6c5C(=O)N(C5CCC(=O)NC5=O)C6=O)CC4)ccc32)c1F (centres unmarked)
unit-abbrev: %
DCmax(%) BRAF^V600E: 29
